target: CDK2/Cyclin E complex (UniProt P24941 1-298; P24864 1-410); assay: cell-based or functional assay; note: test concentration or dose not given here
Ends that are not written are not given here.
OUTCOME_MEASURE: % Inhibition, cyclin E/CDK2 kinase (%)
Give the quantity in %, number only.

Qu. Complete the entry with % Inhibition, cyclin E/CDK2 kinase for DFYHSKRRL-NH2 [DFYHSKRRL-NH2]
Ans. 50

Qu. Complete the entry with % Inhibition, cyclin E/CDK2 kinase for YHSKRRLIF-NH2 [p21 (151-159) YHSKRRLIF-NH2]
Ans. 80

Qu. Complete the entry with % Inhibition, cyclin E/CDK2 kinase for YHSKRRLIFSKR-NH2 [YHSKRRLIFSKR-NH2]
Ans. 80

Qu. Complete the entry with % Inhibition, cyclin E/CDK2 kinase for MTDFYHSKRRLI-NH2 [MTDFYHSKRRLI-NH2]
Ans. 35

Qu. Complete the entry with % Inhibition, cyclin E/CDK2 kinase for FYHSKRRLIF-NH2 [p21 (150-159) FYHSKRRLIF-NH2]
Ans. 80

Qu. Complete the entry with % Inhibition, cyclin E/CDK2 kinase for FYHSKRRLIFSK-NH2 [FYHSKRRLIFSK-NH2]
Ans. 70

Qu. Complete the entry with % Inhibition, cyclin E/CDK2 kinase for KRRLIFSK-NH2 [KRRLIFSK-NH2]
Ans. 60

Qu. Complete the entry with % Inhibition, cyclin E/CDK2 kinase for DFYHSKRRLIF-NH2 [p21 (149-159) DFYHSKRRLIF-NH2]
Ans. 75
